Target: T1, human CD22-ECD-His protein (human, UniProt P20273 20-687)
T1 construct: Recombinant, from HEK293E cells; also called hCD22-ECD-His; human CD22-His protein; not shown: His tag
T1 sequence: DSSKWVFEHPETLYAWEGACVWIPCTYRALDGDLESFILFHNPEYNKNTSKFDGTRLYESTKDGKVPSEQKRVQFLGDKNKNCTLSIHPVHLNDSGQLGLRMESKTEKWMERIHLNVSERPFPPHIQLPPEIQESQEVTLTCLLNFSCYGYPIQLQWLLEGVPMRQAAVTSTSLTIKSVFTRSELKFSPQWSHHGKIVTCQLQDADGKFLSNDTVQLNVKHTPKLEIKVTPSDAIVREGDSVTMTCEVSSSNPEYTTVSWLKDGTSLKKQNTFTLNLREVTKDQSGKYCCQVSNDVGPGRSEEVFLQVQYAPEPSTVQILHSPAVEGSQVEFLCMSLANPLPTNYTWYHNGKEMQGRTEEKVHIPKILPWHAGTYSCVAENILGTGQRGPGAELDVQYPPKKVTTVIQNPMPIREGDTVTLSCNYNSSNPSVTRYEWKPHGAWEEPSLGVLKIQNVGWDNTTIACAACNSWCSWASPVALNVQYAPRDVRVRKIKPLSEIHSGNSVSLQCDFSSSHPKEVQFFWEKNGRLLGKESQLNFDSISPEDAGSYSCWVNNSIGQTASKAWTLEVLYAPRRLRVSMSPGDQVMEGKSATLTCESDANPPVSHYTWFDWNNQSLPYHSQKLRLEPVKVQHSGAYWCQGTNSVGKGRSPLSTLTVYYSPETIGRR
Assay: SPR (Biacore), antibody captured on Protein A chip, CD22-ECD-His in solution
Criterion: Kd strictly under 3 nM. Met: Condition met. Not met: Condition not met.

These solved cases illustrate the format of a correct answer.
F1.17.1 (antibody, human IgG1, kappa, V domains shown, Chimeric IgG1 kappa) VH: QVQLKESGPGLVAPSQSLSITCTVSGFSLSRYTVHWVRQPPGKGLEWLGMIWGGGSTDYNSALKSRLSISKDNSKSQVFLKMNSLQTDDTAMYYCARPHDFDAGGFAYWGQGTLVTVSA VL: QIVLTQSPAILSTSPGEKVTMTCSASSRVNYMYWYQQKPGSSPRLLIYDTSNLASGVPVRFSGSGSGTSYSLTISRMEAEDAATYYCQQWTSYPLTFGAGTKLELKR: Condition met
F2.173.9 (antibody, human IgG1, lambda, V domains shown, Chimeric IgG1 lambda) VH: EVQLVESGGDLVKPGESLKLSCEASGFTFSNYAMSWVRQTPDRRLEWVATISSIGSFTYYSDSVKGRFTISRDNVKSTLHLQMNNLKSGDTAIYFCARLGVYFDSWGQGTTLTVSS VL: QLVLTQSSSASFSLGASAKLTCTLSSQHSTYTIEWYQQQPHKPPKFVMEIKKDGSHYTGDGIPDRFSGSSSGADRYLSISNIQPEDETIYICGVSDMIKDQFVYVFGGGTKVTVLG: Condition not met
F2.121.9 (antibody, human IgG1, lambda, V domains shown, Chimeric IgG1 lambda) VH: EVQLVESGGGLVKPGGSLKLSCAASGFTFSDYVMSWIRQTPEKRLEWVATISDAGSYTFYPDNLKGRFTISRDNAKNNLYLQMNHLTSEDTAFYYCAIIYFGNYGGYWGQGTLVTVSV VL: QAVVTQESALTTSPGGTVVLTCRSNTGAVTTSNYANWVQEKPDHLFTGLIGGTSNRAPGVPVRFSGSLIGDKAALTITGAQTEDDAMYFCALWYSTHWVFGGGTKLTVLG: Condition not met

Query string: Does the reported Kd of F1.161.7 (antibody, human IgG1, kappa, V domains shown, Chimeric IgG1 kappa) VH: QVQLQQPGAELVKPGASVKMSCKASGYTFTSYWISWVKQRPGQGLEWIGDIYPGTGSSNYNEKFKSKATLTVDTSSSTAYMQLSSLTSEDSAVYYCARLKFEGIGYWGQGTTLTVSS VL: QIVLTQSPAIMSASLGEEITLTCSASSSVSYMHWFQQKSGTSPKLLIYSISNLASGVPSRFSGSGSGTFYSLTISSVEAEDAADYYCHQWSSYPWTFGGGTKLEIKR stay below 3 nM?
Result string: Condition not met

Query string: Does the reported Kd of F1.60.9 (antibody, human IgG1, kappa, V domains shown, Chimeric IgG1 kappa) VH: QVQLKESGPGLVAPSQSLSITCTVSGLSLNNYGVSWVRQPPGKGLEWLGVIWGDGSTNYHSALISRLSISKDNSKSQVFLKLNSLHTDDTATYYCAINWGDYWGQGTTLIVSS VL: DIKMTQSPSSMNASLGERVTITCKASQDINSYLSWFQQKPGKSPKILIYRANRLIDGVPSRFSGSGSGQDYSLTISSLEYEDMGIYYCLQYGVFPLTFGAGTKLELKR stay below 3 nM?
Result string: Condition met

Query string: Does the reported Kd of F2.42.9 (antibody, human IgG1, lambda, V domains shown, Chimeric IgG1 lambda) VH: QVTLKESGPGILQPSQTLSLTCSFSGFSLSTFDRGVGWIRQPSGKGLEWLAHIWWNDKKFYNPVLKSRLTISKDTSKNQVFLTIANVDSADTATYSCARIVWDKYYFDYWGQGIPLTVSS VL: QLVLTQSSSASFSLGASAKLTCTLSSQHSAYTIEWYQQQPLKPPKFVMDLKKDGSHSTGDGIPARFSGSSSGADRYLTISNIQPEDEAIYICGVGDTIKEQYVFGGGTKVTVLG stay below 3 nM?
Result string: Condition not met

Query string: Does the reported Kd of F2.55.1 (antibody, human IgG1, lambda, V domains shown, Chimeric IgG1 lambda) VH: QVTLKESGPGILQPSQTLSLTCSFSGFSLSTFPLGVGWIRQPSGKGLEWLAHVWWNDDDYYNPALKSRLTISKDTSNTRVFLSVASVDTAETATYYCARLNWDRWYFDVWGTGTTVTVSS VL: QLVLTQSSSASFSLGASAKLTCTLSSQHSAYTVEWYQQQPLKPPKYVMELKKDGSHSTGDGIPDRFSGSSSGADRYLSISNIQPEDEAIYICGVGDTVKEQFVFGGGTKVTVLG stay below 3 nM?
Result string: Condition met

Query string: Does the reported Kd of F1.105.11 (antibody, human IgG1, kappa, V domains shown, Chimeric IgG1 kappa) VH: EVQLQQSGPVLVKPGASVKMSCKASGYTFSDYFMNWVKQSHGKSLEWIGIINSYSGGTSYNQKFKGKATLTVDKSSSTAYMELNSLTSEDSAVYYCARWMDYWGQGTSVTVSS VL: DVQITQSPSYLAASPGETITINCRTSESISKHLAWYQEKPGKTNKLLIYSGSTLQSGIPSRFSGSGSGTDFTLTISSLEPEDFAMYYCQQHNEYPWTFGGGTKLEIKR stay below 3 nM?
Result string: Condition met

Query string: Does the reported Kd of F1.216.2 (antibody, human IgG1, kappa, V domains shown, Chimeric IgG1 kappa) VH: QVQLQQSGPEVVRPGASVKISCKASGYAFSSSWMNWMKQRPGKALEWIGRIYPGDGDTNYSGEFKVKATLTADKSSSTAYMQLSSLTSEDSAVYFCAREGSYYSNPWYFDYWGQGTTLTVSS VL: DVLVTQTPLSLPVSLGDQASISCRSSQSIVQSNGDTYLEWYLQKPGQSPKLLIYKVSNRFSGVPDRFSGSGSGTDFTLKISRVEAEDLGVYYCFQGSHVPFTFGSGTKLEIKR stay below 3 nM?
Result string: Condition not met
